The origin of these recorded values is PubChem BioAssay (NCI).

Test system: HCT-15 colon
Test: NCI-60 one-dose screen, 48 h
Settings: 10 µM unless noted
About 83,000 compounds went through this panel and 20% of them were active in at least one assay; those are over-represented in the sample as a whole. Activity calls are given as the source filed them. The calls were made as follows: active = growth percent below 10; inactive = the rest.
Use one of these outcomes when replying: True (active), False (inactive)

Some solved cases for reference:
CCOc1ccc2nc(NC(=O)Nc3ccccc3C)sc2c1; False
CCOC(=O)C1=C(C)Nc2nnc(Nc3ccccc3)n2C1c1ccccc1 (stereo not given); False
CC1CCc2c(sc3nc(SCC(=O)N/N=C/c4ccc(Cl)cc4)n(-c4ccccc4)c(=O)c23)C1 (stereo not given); False
O=C(Nc1cccc(Cl)c1)Nc1nc2ccc([N+](=O)[O-])cc2s1; True
C[C@@H]1C[C@H]2C(=O)OCC(NC(=O)[C@H](Cc3cc(F)cc(F)c3)NC(=O)Nc3ccc(Cl)cc3F)C(=O)N3CCC[C@H]3C(=O)N3CCCC[C@H]3C(=O)N[C@@H](C)C(=O)N2C1 (stereo not given in full); False

Query string: Field: outcome | Entry: CC(=O)NC(C)(C)C(=O)N1CCC[C@H]1C(=O)NC(C)(C)C(=O)N[C@@H](C)C(=O)NC(C)(C)C(=O)NC(C)(C)C(=O)N[C@@H](CCC(N)=O)C(=O)NC(C)(C)C(=O)N[C@H](C(=O)NC(C)(C)C(=O)NCC(=O)N[C@@H](CC(C)C)C(=O)NC(C)(C)C(=O)N1CCC[C@H]1C(=O)N[C@H](C(=O)NC(C)(C)C(=O)NC(C)(C)C(=O)N[C@@H](CCC(N)=O)C(=O)N[C@@H](CCC(N)=O)C(=O)N[C@H](CO)Cc1ccccc1)C(C)C)C(C)C
Result string: False

Query string: How about this compound: Cc1nn(-c2ccccc2)cc1/C=N/Nc1nc(Nc2ccccc2)nc(Nc2ccc(S(N)(=O)=O)cc2)n1
Result string: True

----------
Tested on: LOX IMVI melanoma
Assay: NCI-60 one-dose screen, 48 h (100 = growth as untreated, 0 = no growth, -100 = all killed)
Conditions: 10 µM unless noted
Compounds without any hit were thinned out: in the full panel of roughly 83,000, 20% have a hit.
Output yes for records whose growth is lower than 60%, no for records at or above 60%.

Some solved cases for reference:
CC(=O)Nc1ccc(NC(=O)Nc2cccc(-c3nc(-c4ccc(NC(=O)c5cccs5)cc4Cl)no3)c2)cc1C(F)(F)F; yes
O=C1c2cc(Br)ccc2-n2c1nc1cc(Br)ccc1c2=O; no
C=CCn1c(SCC(=O)Nc2cccc(C(=O)/C=C/c3ccc(C)cc3)c2)nc2ccccc2c1=O; no
Oc1ccc(CSc2nnc(-c3cnccn3)n2-c2ccccc2)c2cccnc12; yes
COc1ccc2c(C3=C(c4cn(C)c5ccccc45)C(=O)NC3=O)coc2c1; yes
C/C(Cc1ccc(Cl)cc1)=C(/c1ccccc1)c1ccc(OCCN)cc1; no

Query string: growth strictly < 60% for this compound? CC[C@H](C)[C@H]1NC(=O)[C@@H]([C@H](O)C(C)C)NC(=O)[C@@H](C)N(C)C(=O)[C@H](C)N(C)C(=O)[C@H](CC(C)C)NC(=O)[C@H](CC(C)C)N(C)C(=O)[C@H](C)N(C)C1=O
Result string: yes

Query string: How about this compound: CC(=O)Nc1ccc(NC(=O)Nc2cccc(-c3nc(-c4ccc(NC(=O)c5cccnc5)cc4Cl)no3)c2)cc1C(F)(F)F
Result string: yes

Query string: How about this compound: O=C(/C=C/c1cccc(O)c1)c1ccc(O)cc1
Result string: yes
